meta.source: patent US11820756B2

Catalogue of pIC50 readings, one per entry.
Target: human bradykinin B2 receptor (hB2R) (Homo sapiens, UniProt P30411)
Sequence (P30411 1-391): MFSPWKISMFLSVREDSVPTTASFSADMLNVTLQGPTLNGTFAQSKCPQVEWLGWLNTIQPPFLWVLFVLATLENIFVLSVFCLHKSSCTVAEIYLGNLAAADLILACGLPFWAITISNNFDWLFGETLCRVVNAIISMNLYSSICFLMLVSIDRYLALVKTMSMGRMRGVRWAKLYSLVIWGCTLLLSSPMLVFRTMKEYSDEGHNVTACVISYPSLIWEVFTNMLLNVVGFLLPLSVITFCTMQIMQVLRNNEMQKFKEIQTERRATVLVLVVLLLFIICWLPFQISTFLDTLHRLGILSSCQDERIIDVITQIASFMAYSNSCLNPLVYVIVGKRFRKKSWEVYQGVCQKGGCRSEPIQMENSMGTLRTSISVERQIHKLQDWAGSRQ
Test: cell-based human bradykinin B2 receptor calcium mobilization (hB2R-CaM) assay
Settings: HTS041C cells, bradykinin at EC80, calcium mobilization; read-out: IC50-value towards human bradykinin B2 receptor (hB2R)
pIC50: −log10 of the molar value.
metric: pIC50

* Cc1cc(-n2cc(F)cn2)c2cccc(OCc3c(Cl)cc(F)cc3[C@H](C)NC(=O)C(C)OCC3CC3)c2n1 (stereo partly drawn) [Compound 51] | 6.60 to 7.29
* CC(=O)C(=O)N[C@@H](C)c1cc(F)cc(Cl)c1COc1cccc2c(-n3cc(F)cn3)cc(C)nc12 [Compound 55] | 6.00 to 6.60
* Cc1cc(-c2[nH]ncc2C)c2cccc(OCc3c(Cl)cc(F)cc3[C@H](C)NC(=O)c3cnco3)c2n1 [Compound 187] | ≥ 7.30
* Cc1cc(-n2cc(F)cn2)c2cccc(OCc3c(Cl)cc(F)cc3[C@H](C)NC(=O)c3cn(C)cn3)c2n1 [Compound 108] | 6.60 to 7.29
* Cc1cc(-n2cc(F)cn2)c2cccc(OCc3c(Cl)cc(F)cc3[C@H](C)NC(=O)[C@H]3CCCO3)c2n1 [Compound 20] | ≥ 7.30
* CC[C@H](NC(=O)c1cocn1)c1cc(F)cc(Cl)c1COc1cccc2c(-n3ncnc3C)cc(C)nc12 [Compound 165] | ≥ 7.30
* [2H]C([2H])([2H])[C@H](NC(=O)COC(F)F)c1cc(F)cc(Cl)c1COc1cccc2c(-c3ncnn3C)cc(C)nc12 [Compound 202] | ≥ 7.30
* Cc1cc(-n2nccn2)c2cccc(OCc3c(Cl)cc(F)cc3[C@H](C)NC(=O)[C@H]3CCOC3)c2n1 [Compound 30] | ≥ 7.30
* CCOCC(=O)N[C@@H](C)c1cc(F)cc(Cl)c1COc1cccc2c(-n3cc(F)cn3)cc(C)nc12 [Compound 18] | ≥ 7.30
* Cc1cc(-n2cnc(C)n2)c2cccc(OCc3c(Cl)cc(F)cc3[C@H](C)NC(=O)c3cnco3)c2n1 [Compound 96] | 6.60 to 7.29
* Cc1cc(-n2nccn2)c2cccc(OCc3c(Cl)cc(F)cc3[C@H](C)NC(=O)[C@@H](C)O)c2n1 [Compound 31] | 6.60 to 7.29
* Cc1cc(-n2cc(F)cn2)c2cccc(OCc3c(Cl)cc(F)cc3[C@H](C)NC(=O)[C@H]3CCOC3)c2n1 [Compound 15] | ≥ 7.30
* Cc1cc(-n2cc(F)cn2)c2cccc(OCc3c(Cl)cc(F)cc3[C@H](C)NC(=O)c3cocn3)c2n1 [Compound 82] | ≥ 7.30
* Cc1cc(-n2ncnc2C)c2cccc(OCc3c(Cl)cc(F)cc3[C@H](C)NC(=O)c3cc(C)on3)c2n1 [Compound 158] | ≥ 7.30
* CC[C@H](O)C(=O)N[C@@H](C)c1cc(F)cc(Cl)c1COc1cccc2c(-n3cc(F)cn3)cc(C)nc12 [Compound 25] | 6.60 to 7.29
* Cc1cc(-c2ncnn2C)c2cccc(OCc3c(Cl)cc(F)cc3[C@H](C)NC(=O)COC(F)F)c2n1 [Compound 6] | ≥ 7.30
* Cc1cc(-n2ncnc2C)c2cccc(OCc3c(Cl)cc(F)cc3[C@H](C)NC(=O)CC(F)(F)F)c2n1 [Compound 179] | ≥ 7.30
* Cc1cc(-n2cc(F)cn2)c2cccc(OCc3c(Cl)cc(F)cc3[C@H](C)NC(=O)c3cncs3)c2n1 [Compound 90] | ≥ 7.30

====

Biological target: UniProt:P30411
Sequence (P30411 1-391): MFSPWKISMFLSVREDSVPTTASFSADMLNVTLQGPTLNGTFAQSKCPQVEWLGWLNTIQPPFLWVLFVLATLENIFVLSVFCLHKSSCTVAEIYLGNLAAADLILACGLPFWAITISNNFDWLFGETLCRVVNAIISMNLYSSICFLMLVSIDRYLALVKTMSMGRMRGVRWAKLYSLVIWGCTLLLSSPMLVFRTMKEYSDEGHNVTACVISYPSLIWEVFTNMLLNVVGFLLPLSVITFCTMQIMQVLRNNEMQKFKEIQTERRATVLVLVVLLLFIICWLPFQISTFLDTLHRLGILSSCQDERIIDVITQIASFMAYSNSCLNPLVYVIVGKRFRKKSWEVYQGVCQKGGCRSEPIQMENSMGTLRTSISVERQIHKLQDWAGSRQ
Assay: cell-based human bradykinin B2 receptor calcium mobilization (hB2R-CaM) assay
Conditions: HTS041C cells, bradykinin at EC80, calcium mobilization; read-out: IC50-value towards human bradykinin B2 receptor (hB2R)
Catalogue of IC50 readings, one per entry.
metric: IC50

• Cc1cc(-n2cc(F)cn2)c2cccc(OCc3c(Cl)cc(F)cc3[C@H](CO)NC(=O)C(C)(C)O)c2n1 [Compound 105] = 51 to 250 nM
• Cc1cc(-n2cc(F)cn2)c2cccc(OCc3c(Cl)cc(F)cc3[C@H](C)NC(=O)[C@@H]3COC(C)(C)O3)c2n1 [Compound 61] = ≤ 50 nM
• Cc1cc(-n2cc(F)cn2)c2cccc(OCc3c(Cl)cc(F)cc3[C@H](C)NC(=O)c3ccccn3)c2n1 [Compound 123] = 51 to 250 nM
• Cc1cc(-c2ncnn2C)c2cccc(OCc3c(Cl)cc(F)cc3[C@H](C)NC(=O)c3cc(C)on3)c2n1 [Compound 127] = ≤ 50 nM
• Cc1cc(-n2cc(F)cn2)c2cccc(OCc3c(Cl)cc(F)cc3[C@H](C)NC(=O)C3CN(C)C3)c2n1 [Compound 65] = 251 to 1000 nM
• COCC(=O)N[C@@H](C)c1cc(F)cc(Cl)c1COc1cccc2c(-c3ncnn3C)cc(C)nc12 [Compound 83] = ≤ 50 nM
• Cc1cc(-n2cnc(C)n2)c2cccc(OCc3c(Cl)cc(F)cc3[C@H](C)NC(=O)[C@@H](C)O)c2n1 [Compound 98] = 251 to 1000 nM
• [2H][C@@](C)(NC(=O)CC(F)F)c1cc(F)cc(Cl)c1COc1cccc2c(-n3ncnc3C)cc(C)nc12 [Compound 209] = ≤ 50 nM
• Cc1cc(-c2ncnn2C)c2cccc(OCc3c(Cl)cc(F)cc3[C@H](C)NC(=O)c3cocn3)c2n1 [Compound 128] = ≤ 50 nM
• Cc1cc(-n2cc(F)cn2)c2cccc(OCc3c(Cl)cc(F)cc3[C@H](C)N(C)C(=O)CO)c2n1 [Compound 102] = ≤ 50 nM
• Cc1cc(-n2cnc(C)n2)c2cccc(OCc3c(Cl)cc(F)cc3[C@H](C)NC(=O)COC(F)F)c2n1 [Compound 10] = 51 to 250 nM
• CC[C@@H](O)C(=O)N[C@@H](C)c1cc(F)cc(Cl)c1COc1cccc2c(-n3nccn3)cc(C)nc12 [Compound 34] = 51 to 250 nM
• Cc1cc(-n2nc(C)nc2C)c2cccc(OCc3c(Cl)cc(F)cc3[C@H](C)NC(=O)COC(F)(F)F)c2n1 [Compound 139] = ≤ 50 nM
• [2H][C@@](C)(NC(=O)CC(F)F)c1cc(F)cc(Cl)c1COc1cccc2c(-c3ncnn3C)cc(C)nc12 [Compound 210] = ≤ 50 nM
• CC[C@H](NC(=O)COC(F)(F)F)c1cc(F)cc(Cl)c1COc1cccc2c(-n3ncnc3C)cc(C)nc12 [Compound 167] = ≤ 50 nM
• CCn1ncnc1-c1cc(C)nc2c(OCc3c(Cl)cc(F)cc3[C@H](C)NC(=O)c3ccon3)cccc12 [Compound 141] = ≤ 50 nM
• Cc1cc(-c2[nH]ncc2C)c2cccc(OCc3c(Cl)cc(F)cc3[C@H](C)NC(=O)COC(F)F)c2n1 [Compound 185] = ≤ 50 nM
• Cc1cc(-n2cc(F)cn2)c2cccc(OCc3c(Cl)cc(F)cc3[C@H](C)NC(=O)[C@@H]3CC[C@H](C)O3)c2n1 [Compound 132] = ≤ 50 nM
• Cc1cc(-c2ccnn2C)c2cccc(OCc3c(Cl)cc(F)cc3[C@H](C)NC(=O)CO)c2n1 [Compound 194] = ≤ 50 nM
• Cc1cc(-n2cc(F)cn2)c2cccc(OCc3c(Cl)cc(F)cc3[C@H](C)NC(=O)[C@@H](O)CN)c2n1 [Compound 21] = 251 to 1000 nM
• [2H]C([2H])([2H])[C@]([2H])(NC(=O)c1cocn1)c1cc(F)cc(Cl)c1COc1cccc2c(-c3ncnn3C)cc(C)nc12 [Compound 201] = ≤ 50 nM
• Cc1cc(-n2ncnc2C)c2cccc(OCc3c(Cl)cc(F)cc3[C@H](C)NC(=O)C(F)F)c2n1 [Compound 174] = ≤ 50 nM
